Entry source: ChEMBL document CHEMBL4376840

- measured target: Cannabinoid receptor 1 (Homo sapiens)
- Sequence (P21554 whole entry): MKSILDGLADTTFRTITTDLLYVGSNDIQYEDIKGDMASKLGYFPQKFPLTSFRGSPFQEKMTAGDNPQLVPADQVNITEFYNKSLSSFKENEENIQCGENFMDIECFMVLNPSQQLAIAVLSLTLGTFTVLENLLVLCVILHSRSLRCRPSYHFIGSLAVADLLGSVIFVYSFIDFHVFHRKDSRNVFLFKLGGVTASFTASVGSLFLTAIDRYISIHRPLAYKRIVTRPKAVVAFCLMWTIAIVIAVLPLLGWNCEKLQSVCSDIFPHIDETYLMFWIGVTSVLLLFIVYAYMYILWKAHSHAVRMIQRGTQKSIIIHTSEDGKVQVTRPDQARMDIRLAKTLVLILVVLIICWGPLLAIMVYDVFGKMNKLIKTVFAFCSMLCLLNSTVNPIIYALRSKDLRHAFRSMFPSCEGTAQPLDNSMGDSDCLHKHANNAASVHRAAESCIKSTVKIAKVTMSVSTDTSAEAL
- measurement protocol: Positive allosteric modulatory activity at human CB1R expressed in CHO-K1 cells assessed as increase in CP55940-induced inhibition of forskolin-stimulated cAMP production after 30 mins in presence of CP55940 at EC20 concentration by hit-hunter cAMP assay
- Assay type: functional, cell-based
In this section, each of the compounds is paired with its reported EC50.
Give the value in nM but do not write nM after it.

- compound: "O=[N+]([O-])CC(c1ccccc1)c1c(-c2ccccc2)[nH]c2ccc(F)cc12 (centres undefined)"
  measured target: "Cannabinoid receptor 1 (Homo sapiens)"
  endpoint unit: "nM"
  EC50: 191
- compound: "O=[N+]([O-])CC(c1ccncc1)c1c(-c2ccccc2)[nH]c2ccccc12 (centres undefined)"
  measured target: "Cannabinoid receptor 1 (Homo sapiens)"
  endpoint unit: "nM"
  EC50: 510

stdin: Form field: EC50 recorded for O=[N+]([O-])CC(c1ccccc1F)c1c(-c2cccc(F)c2)[nH]c2cc(F)ccc12 (centres undefined) with Cannabinoid receptor 1 (Homo sapiens) (enter value)
stdout: 28
